// Kd collected for GPR4 (Homo sapiens, UniProt P46093)
State just the number; it will be interpreted in nM.

q: Report Kd, nothing else, for this compound: CCCCCCCCCCCCC/C=C/[C@@H](O)[C@@H](N)COP(=O)([O-])OCC[N+](C)(C)C [SPC, Sphingosylphosphorylcholine]
a: 36

q: Note down Kd recorded for CCCCCCCCCCCCCCCC(=O)OC[C@@H](O)COP(=O)([O-])OCC[N+](C)(C)C [16:0-LPC]
a: 159

* * *

Target: GPR4 (Homo sapiens, UniProt P46093)
Construct: were used to generate full length GPR4, which was digested with EcoRI and Xba I and cloned into the pBs3HA vector; expressed in transfected cells
Sequence (P46093 whole entry): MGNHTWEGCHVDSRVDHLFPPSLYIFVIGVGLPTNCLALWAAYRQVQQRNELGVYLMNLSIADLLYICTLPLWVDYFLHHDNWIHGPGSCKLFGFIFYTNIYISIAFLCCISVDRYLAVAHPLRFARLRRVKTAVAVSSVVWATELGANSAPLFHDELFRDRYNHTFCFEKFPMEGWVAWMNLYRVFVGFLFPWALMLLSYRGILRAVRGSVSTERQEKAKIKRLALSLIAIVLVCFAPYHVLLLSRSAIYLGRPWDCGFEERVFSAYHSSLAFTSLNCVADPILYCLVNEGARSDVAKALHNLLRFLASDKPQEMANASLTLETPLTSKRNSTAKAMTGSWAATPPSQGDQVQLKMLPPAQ
Assay: Radioligand binding to homogenates of GPR4-transfected CHO cells
Conditions: cold competitors, GPR4-transfected CHO cell homogenates
property: competition for binding of [3H]SPC and [3H]16:0-LPC to GPR4

[[record]]
compound = "CCCCCCCCCCCCCCCCOC[C@@H](O)COP(=O)([O-])OCC[N+](C)(C)C [lyso-PAF]"
target = "GPR4 (Homo sapiens, UniProt P46093)"
measured_result = "not"

[[record]]
compound = "CCCCCCCCCCCCC/C=C/[C@@H](O)[C@@H](N)COP(=O)(O)O [S1P, sphingosine-1-phosphate]"
target = "GPR4 (Homo sapiens, UniProt P46093)"
measured_result = "not"


* * *

property: pKd
By convention, pKd is the negative base-10 log of a molar concentration.

q: Look up and report pKd, with OGR1 (Homo sapiens, UniProt Q15743) as system, for CCCCCCCCCCCCC/C=C/[C@@H](O)[C@@H](N)COP(=O)([O-])OCC[N+](C)(C)C
Sequence (Q15743 whole entry, species assumed): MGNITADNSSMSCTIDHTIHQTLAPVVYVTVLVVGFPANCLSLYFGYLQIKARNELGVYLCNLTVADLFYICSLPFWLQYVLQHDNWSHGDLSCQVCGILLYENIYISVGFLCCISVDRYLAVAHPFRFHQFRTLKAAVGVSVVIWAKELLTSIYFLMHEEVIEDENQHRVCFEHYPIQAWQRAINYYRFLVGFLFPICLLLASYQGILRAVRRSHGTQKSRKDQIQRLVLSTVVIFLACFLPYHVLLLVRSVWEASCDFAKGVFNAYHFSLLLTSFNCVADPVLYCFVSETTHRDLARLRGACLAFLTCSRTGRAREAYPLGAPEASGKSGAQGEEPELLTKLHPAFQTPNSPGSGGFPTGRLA
a: 7.48

* * *

Target: GPR4 (Homo sapiens)
Construct: were used to generate full length GPR4, which was digested with EcoRI and Xba I and cloned into the pBs3HA vector; expressed in transfected cells
Assay: ERK MAP kinase activation (phospho-ERK Western blot) in GPR4-infected Swiss 3T3 cells
Format: cell-based
Conditions: GPR4-ires-GFP vs GFP Swiss 3T3 cells; SPC and LPC 100 nM
Protocol: MAP kinases are key signaling intermediates of DNA synthesis and cell proliferation. Swiss 3T3 cells were infected with MSCV GPR4-ires-GFP or MSCV ires-GFP, and subsequently cells sorted by FACS for positive expression of GFP as described previously (Kabarowski et al. (2000) Proc Natl Acad Sci USA. 97, 12109-12114). Cells were plated in 6-well plates in DMEM containing 5% FBS, serum-starved overnight, and then treated lipids in DMEM for the indicated times. […]
property: GPR4-dependent ERK activation (in words)

[[record]]
chem_smiles = "CCCCCCCCCCCCC/C=C/[C@@H](O)[C@@H](N)CO[C@@H]1O[C@H](CO)[C@@H](O)[C@H](O)[C@H]1O"
measured_result = "not"

[[record]]
chem_smiles = "CCCCCCCCCCCCC/C=C/[C@@H](O)[C@@H](N)CO[C@@H]1O[C@H](CO)[C@H](O)[C@H](O)[C@H]1O"
measured_result = "not"

